src = patent US20250340540A1

Here the recorded HPLC purity (%) is given for each entry.
# Format: physicochemical
# CONDITION: 60° C., 5 Days
# Description: The X-ray powder diffraction instrument and test conditions involved in the present disclosure were as follows: X-ray diffraction instrument model MiniFlex600Cu target; operation method: scanning speed 20°/min, scanning step width 0.02°. […]
READOUT_TYPE: HPLC purity (%)

CC(C)(C)[C@H](NC(=O)C(F)(F)F)C(=O)N1C[C@H]2[C@@H]([C@H]1C(=O)N[C@H](C#N)C[C@@H]1CCNC1=O)C2(C)C [Crystal form B] ... 99.56
CC(C)(C)[C@H](NC(=O)C(F)(F)F)C(=O)N1C[C@H]2[C@@H]([C@H]1C(=O)N[C@H](C#N)C[C@@H]1CCNC1=O)C2(C)C [Crystal form 1] ... 95.34
CC(C)(C)[C@H](NC(=O)C(F)(F)F)C(=O)N1C[C@H]2[C@@H]([C@H]1C(=O)N[C@H](C#N)C[C@@H]1CCNC1=O)C2(C)C [Crystal form 4] ... 93.26
CC(C)(C)[C@H](NC(=O)C(F)(F)F)C(=O)N1C[C@H]2[C@@H]([C@H]1C(=O)N[C@H](C#N)C[C@@H]1CCNC1=O)C2(C)C [Crystal form A] ... 99.86
CC(C)(C)[C@H](NC(=O)C(F)(F)F)C(=O)N1C[C@H]2[C@@H]([C@H]1C(=O)N[C@H](C#N)C[C@@H]1CCNC1=O)C2(C)C [Crystal form 2] ... 93.71
CC(C)(C)[C@H](NC(=O)C(F)(F)F)C(=O)N1C[C@H]2[C@@H]([C@H]1C(=O)N[C@H](C#N)C[C@@H]1CCNC1=O)C2(C)C [Crystal form 5] ... 91.05

====

Here the recorded Changes of HPLC purity over 10 days is given for each entry.
# Assay type: physicochemical
# CONDITION: 60° C., 10 days vs 0 day
READOUT_TYPE: Changes of HPLC purity over 10 days

CC(C)(C)[C@H](NC(=O)C(F)(F)F)C(=O)N1C[C@H]2[C@@H]([C@H]1C(=O)N[C@H](C#N)C[C@@H]1CCNC1=O)C2(C)C [Crystal form 5] ... −0.44
CC(C)(C)[C@H](NC(=O)C(F)(F)F)C(=O)N1C[C@H]2[C@@H]([C@H]1C(=O)N[C@H](C#N)C[C@@H]1CCNC1=O)C2(C)C [Crystal form 4] ... −0.17
CC(C)(C)[C@H](NC(=O)C(F)(F)F)C(=O)N1C[C@H]2[C@@H]([C@H]1C(=O)N[C@H](C#N)C[C@@H]1CCNC1=O)C2(C)C [Crystal form 1] ... −0.03

====

# TEST_PROTOCOL: Microscope photographs: crystal habit and particle fluidity
# Type: physicochemical
# CONDITION: judged from microscope photographs
READOUT_TYPE: Particle fluidity

CC(C)(C)[C@H](NC(=O)C(F)(F)F)C(=O)N1C[C@H]2[C@@H]([C@H]1C(=O)N[C@H](C#N)C[C@@H]1CCNC1=O)C2(C)C [Crystal form 1] ... poor fluidity
CC(C)(C)[C@H](NC(=O)C(F)(F)F)C(=O)N1C[C@H]2[C@@H]([C@H]1C(=O)N[C@H](C#N)C[C@@H]1CCNC1=O)C2(C)C [Crystal form 5] ... poor fluidity
CC(C)(C)[C@H](NC(=O)C(F)(F)F)C(=O)N1C[C@H]2[C@@H]([C@H]1C(=O)N[C@H](C#N)C[C@@H]1CCNC1=O)C2(C)C [Crystal form 2] ... poor fluidity

====

# Assay type: physicochemical
# CONDITION: 0 Day, before placing at 60° C.
READOUT_TYPE: HPLC purity (%)

CC(C)(C)[C@H](NC(=O)C(F)(F)F)C(=O)N1C[C@H]2[C@@H]([C@H]1C(=O)N[C@H](C#N)C[C@@H]1CCNC1=O)C2(C)C [Crystal form 4] ... 93.31
CC(C)(C)[C@H](NC(=O)C(F)(F)F)C(=O)N1C[C@H]2[C@@H]([C@H]1C(=O)N[C@H](C#N)C[C@@H]1CCNC1=O)C2(C)C [Crystal form A] ... 99.86
CC(C)(C)[C@H](NC(=O)C(F)(F)F)C(=O)N1C[C@H]2[C@@H]([C@H]1C(=O)N[C@H](C#N)C[C@@H]1CCNC1=O)C2(C)C [Crystal form 5] ... 91.23
CC(C)(C)[C@H](NC(=O)C(F)(F)F)C(=O)N1C[C@H]2[C@@H]([C@H]1C(=O)N[C@H](C#N)C[C@@H]1CCNC1=O)C2(C)C [Crystal form B] ... 99.57
CC(C)(C)[C@H](NC(=O)C(F)(F)F)C(=O)N1C[C@H]2[C@@H]([C@H]1C(=O)N[C@H](C#N)C[C@@H]1CCNC1=O)C2(C)C [Crystal form 2] ... 93.83
CC(C)(C)[C@H](NC(=O)C(F)(F)F)C(=O)N1C[C@H]2[C@@H]([C@H]1C(=O)N[C@H](C#N)C[C@@H]1CCNC1=O)C2(C)C [Crystal form 1] ... 95.34

====

# Format: physicochemical
# CONDITION: 60° C., 10 Days
READOUT_TYPE: HPLC purity (%)

CC(C)(C)[C@H](NC(=O)C(F)(F)F)C(=O)N1C[C@H]2[C@@H]([C@H]1C(=O)N[C@H](C#N)C[C@@H]1CCNC1=O)C2(C)C [Crystal form 2] ... 93.52%
CC(C)(C)[C@H](NC(=O)C(F)(F)F)C(=O)N1C[C@H]2[C@@H]([C@H]1C(=O)N[C@H](C#N)C[C@@H]1CCNC1=O)C2(C)C [Crystal form A] ... 99.85%
CC(C)(C)[C@H](NC(=O)C(F)(F)F)C(=O)N1C[C@H]2[C@@H]([C@H]1C(=O)N[C@H](C#N)C[C@@H]1CCNC1=O)C2(C)C [Crystal form 1] ... 95.31%
CC(C)(C)[C@H](NC(=O)C(F)(F)F)C(=O)N1C[C@H]2[C@@H]([C@H]1C(=O)N[C@H](C#N)C[C@@H]1CCNC1=O)C2(C)C [Crystal form 4] ... 93.14%
CC(C)(C)[C@H](NC(=O)C(F)(F)F)C(=O)N1C[C@H]2[C@@H]([C@H]1C(=O)N[C@H](C#N)C[C@@H]1CCNC1=O)C2(C)C [Crystal form B] ... 99.54%
CC(C)(C)[C@H](NC(=O)C(F)(F)F)C(=O)N1C[C@H]2[C@@H]([C@H]1C(=O)N[C@H](C#N)C[C@@H]1CCNC1=O)C2(C)C [Crystal form 5] ... 90.79%

====

Here the recorded Changes of HPLC purity over 10 days is given for each entry.
# Format: physicochemical
# CONDITION: 60° C., 10 days vs 0 day
READOUT_TYPE: Changes of HPLC purity over 10 days

CC(C)(C)[C@H](NC(=O)C(F)(F)F)C(=O)N1C[C@H]2[C@@H]([C@H]1C(=O)N[C@H](C#N)C[C@@H]1CCNC1=O)C2(C)C [Crystal form A] ... −0.01
CC(C)(C)[C@H](NC(=O)C(F)(F)F)C(=O)N1C[C@H]2[C@@H]([C@H]1C(=O)N[C@H](C#N)C[C@@H]1CCNC1=O)C2(C)C [Crystal form B] ... −0.03
CC(C)(C)[C@H](NC(=O)C(F)(F)F)C(=O)N1C[C@H]2[C@@H]([C@H]1C(=O)N[C@H](C#N)C[C@@H]1CCNC1=O)C2(C)C [Crystal form 2] ... −0.31
